biological target: human PPARα (Homo sapiens); construct: DNA constructs encoding human LBD domains of human PPARα, PPARγ, of LXRα (pGAL4-PPARα, pGAL4-PPARγ, pGAL4-LXRα); expressed in transfected cells; host or cells: HepG2; assay: PPARα responsive luciferase reporter gene assay (pGAL4-PPARα / pGL5-UAS 9x) in HepG2 cells; type: cell-based; conditions: relative activation to fenofibrate 10 µM (100%), HepG2, 24 h, negative value indicates inverse agonism
Sequence (Q07869 239-466 limits assumed): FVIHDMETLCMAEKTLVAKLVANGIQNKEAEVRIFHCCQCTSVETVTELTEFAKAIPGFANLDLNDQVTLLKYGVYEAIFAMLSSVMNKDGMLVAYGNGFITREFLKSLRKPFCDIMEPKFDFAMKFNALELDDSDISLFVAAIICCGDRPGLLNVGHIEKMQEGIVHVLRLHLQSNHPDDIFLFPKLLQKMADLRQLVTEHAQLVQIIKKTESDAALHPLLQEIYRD
READOUT KIND: Emax at 10 µM (%)

Recorded Emax at 10 µM, per entry:
C[C@@H](Oc1ccc(Oc2ccc3c(Cl)cccc3n2)cc1)C(=O)O	8
CC(=O)Nc1ccc2ncc(Oc3ccc(OCC(=O)O)cc3)nc2c1	59
C[C@@H](Oc1ccc(Oc2cnc3ccccc3n2)cc1)C(=O)O	0
C[C@@H](Oc1ccc(Oc2ccc3c(Br)cccc3n2)cc1)C(=O)O	0
CCc1ccc2ccc(Oc3ccc(O[C@H](C)C(=O)O)cc3)nc2c1	0

(a) CC(Oc1ccc(NCc2ccc3c(Cl)cc(Cl)cc3n2)cc1)C(=O)O (stereo not drawn)
(b) COc1ccc2ncc(Oc3ccc(O[C@H](C)C(=O)O)cc3)nc2c1
(c) C[C@@H](Oc1ccc(Oc2ccc3cc(Cl)ccc3n2)cc1)C(=O)O
(d) C[C@@H](Oc1ccc(Oc2cnc3ccc(I)cc3n2)cc1)C(=O)O
Q: Returns the items ordered by Emax at 10 µM, from maximum to minimum. API: response body holds the labels in the requested order.
Ans: d, b, a, c
(d: 49%, b: 10%, a: 0%, c: -5%)

Hello, the source for this data is patent EP4583874B1, in case you need it.
